# Tested on: RAW264.7
# TEST: Cytotoxicity against mouse RAW264.7 cells assessed as reduction in cell viability at 25 uM after 48 hrs by MTT assay relative to control
# Assay type: cell-based
# ASSAY CONTEXT: raw264.7, 48 h
We begin with a simple list: items and their reported Activity.
OBSERVABLE: Activity (%)

SMILES CODE: Cc1ccc(NC(=S)Nc2cccc(-c3nc4ccccc4o3)c2)cc1
OBSERVABLE: Activity
NUMERIC READOUT: 99.14
--
SMILES CODE: Cc1ccc2oc(-c3cccc(NC(=S)Nc4ccccc4)c3)nc2c1
OBSERVABLE: Activity
NUMERIC READOUT: 87.32
--
SMILES CODE: Cc1ccc(NC(=O)Nc2cccc(-c3nc4ccccc4o3)c2)cc1
OBSERVABLE: Activity
NUMERIC READOUT: 1.09
--
SMILES CODE: Cc1ccc(NC(=S)Nc2cccc(-c3nc4cc(C)ccc4o3)c2)cc1
OBSERVABLE: Activity
NUMERIC READOUT: 2.12
--
SMILES CODE: S=C(Nc1ccc(Cl)cc1)Nc1cccc(-c2nc3ccccc3o2)c1
OBSERVABLE: Activity
NUMERIC READOUT: 22.81
--
SMILES CODE: Cc1ccc2oc(-c3cccc(NC(=O)Nc4ccccc4)c3)nc2c1
OBSERVABLE: Activity
NUMERIC READOUT: 10.15
